- protocol-summary: small-molecule microarray binders of probe aCHRDL2, primary screen, biochemical, biotinylated probe, 635/667 nm fluorescence (AID 1100)
- conditions-used: higher = more signal
Short version: composite z-score at least 0.8 is YES, less is NO.

Task: Threshold query (composite z-score >= 0.8) on O=C(N1CCOCC1)[C@@]1(CCS(=O)(=O)c2ccccc2)N=C(c2ccc(OCCCO)cc2)O[C@H]1c1ccccc1
Output: YES

Task: Cool, now C=C(CCCC)/C(=C/C[C@H](OC(C)=O)c1ccc(OCCO)cc1)c1cc(C(=O)OC)ccc1OC
Output: NO

Task: Cool, now NCCCCCNC(=O)[C@@H]1C[C@@H]2C(=O)N3CCC[C@H]3C(=O)N2[C@@H]1c1ccc(O)cc1
Output: YES

Task: Cool, now COCC(=C=CC[C@@H](O)c1cccc(OCCO)c1)CCO
Output: NO

Task: Cool, now COC(=O)[C@@]1(Cc2ccc(OC)cc2)[C@H]2c3cc(C(=O)N4CCCC4)n(Cc4ccc(S(C)(=O)=O)cc4)c3C[C@H]2CN1C(=O)c1ccccc1
Output: YES

Task: Cool, now COCCCNC(=O)[C@@]1(Sc2ccc(C)cc2)CC(=O)N(C(C)C)[C@@H]1c1ccc(CO)cc1I
Output: YES

Cited source: PubChem BioAssay
